- System name: D(2) dopamine receptor (Homo sapiens, UniProt P14416)
- Sequence (P14416 whole entry): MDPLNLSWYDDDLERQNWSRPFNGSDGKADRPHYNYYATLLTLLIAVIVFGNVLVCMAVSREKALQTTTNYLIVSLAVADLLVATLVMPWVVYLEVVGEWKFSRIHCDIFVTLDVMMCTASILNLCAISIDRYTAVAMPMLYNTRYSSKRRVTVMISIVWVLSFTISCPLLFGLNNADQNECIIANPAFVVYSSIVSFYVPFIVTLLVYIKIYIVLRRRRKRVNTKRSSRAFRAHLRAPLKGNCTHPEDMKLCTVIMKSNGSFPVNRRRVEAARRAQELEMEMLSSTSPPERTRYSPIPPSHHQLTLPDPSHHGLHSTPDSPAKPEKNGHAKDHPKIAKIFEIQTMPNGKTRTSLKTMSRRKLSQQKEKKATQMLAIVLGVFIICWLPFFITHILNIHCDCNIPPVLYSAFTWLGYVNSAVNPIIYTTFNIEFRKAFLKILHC
- Test summary: Ray2010 Assay 32
pKi: −log10 of the molar value.
Reported property: pKi

Input `CC[C@H]1C[C@@H]2C[C@H]3c4[nH]c5ccc(OC)cc5c4CCN(C2)[C@@H]13` . Output pKi: < 5.00

----------
- System name: Muscarinic acetylcholine receptor M3 (Homo sapiens)
- Sequence (P20309 whole entry): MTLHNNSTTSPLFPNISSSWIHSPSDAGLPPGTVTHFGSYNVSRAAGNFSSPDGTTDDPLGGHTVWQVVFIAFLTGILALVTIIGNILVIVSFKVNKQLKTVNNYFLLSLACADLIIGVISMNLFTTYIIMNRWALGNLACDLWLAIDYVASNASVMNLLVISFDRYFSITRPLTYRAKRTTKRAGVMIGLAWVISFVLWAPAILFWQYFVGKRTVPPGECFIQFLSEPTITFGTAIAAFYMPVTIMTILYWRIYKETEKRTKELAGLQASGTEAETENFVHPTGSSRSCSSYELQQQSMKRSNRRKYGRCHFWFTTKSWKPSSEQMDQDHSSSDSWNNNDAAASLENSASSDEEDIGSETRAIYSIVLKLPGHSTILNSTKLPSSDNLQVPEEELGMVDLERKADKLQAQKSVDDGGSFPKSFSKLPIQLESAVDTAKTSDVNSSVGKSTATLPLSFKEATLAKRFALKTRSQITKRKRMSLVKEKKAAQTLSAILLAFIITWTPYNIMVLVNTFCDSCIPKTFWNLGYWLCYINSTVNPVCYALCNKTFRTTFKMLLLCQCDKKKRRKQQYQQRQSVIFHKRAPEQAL
- Test summary: Ray2010 Assay 74
pKi: −log10 of the molar value.
Reported property: pKi

CN(C)CCc1c[nH]c2cc(F)ccc12 [6-f-dmt] has a reported pKi of < 5.00

pKi reading for `COC(=O)[C@@H]1C[C@H](OC(C)=O)C(=O)[C@H]2[C@@]1(C)CC[C@H]1C(=O)O[C@H](c3ccoc3)C[C@]21C` : < 5.00

Looking up `COc1cc(CCN)c(OC)cc1Br` , I see its pKi listed as 6.09

Short answer for `NCCc1c2c(c(Br)c3c1OCC3)OCC2` : pKi was 6.47

`COc1ccc2[nH]c(C)c(CCN(C)C)c2c1` yielded pKi of < 5.00

response.value for COc1ccc2[nH]cc(CCN(C(C)C)C(C)C)c2c1 [5-meo-dipt] (field: pKi) = < 5.00

----------
- System name: Mu-type opioid receptor (Homo sapiens)
- Sequence (P35372 whole entry): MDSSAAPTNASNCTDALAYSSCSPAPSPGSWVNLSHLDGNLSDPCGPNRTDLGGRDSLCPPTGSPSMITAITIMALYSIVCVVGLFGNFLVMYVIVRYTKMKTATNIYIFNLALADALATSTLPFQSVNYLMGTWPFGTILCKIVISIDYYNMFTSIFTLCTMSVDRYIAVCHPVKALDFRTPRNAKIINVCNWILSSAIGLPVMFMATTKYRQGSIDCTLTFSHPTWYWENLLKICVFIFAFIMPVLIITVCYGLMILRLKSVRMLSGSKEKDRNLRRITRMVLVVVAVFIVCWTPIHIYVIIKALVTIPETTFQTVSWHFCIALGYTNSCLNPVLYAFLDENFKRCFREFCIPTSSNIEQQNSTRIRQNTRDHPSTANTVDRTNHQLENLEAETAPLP
- Test summary: Ray2010 Assay 74
- Text: Table S2 shows raw Ki data for the current study combined with data collected from the literature for the ten additional compounds.
pKi: −log10 of the molar value.
Each record here notes measured pKi.

COc1cc(CC(C)N)c(OC)cc1Br (stereo not drawn) | < 5.00

Given the compound CCSc1cc(OC)c(CCN)cc1OC [2C-T-2] and test system Mu-type opioid receptor (Homo sapiens), the measured pKi is < 5.00

With Mu-type opioid receptor (Homo sapiens) as the test system, CN(C)CCc1c[nH]c2cc(F)ccc12 [6-f-dmt] showed pKi of < 5.00

----------
// reported Ki per item
- System name: Alpha-1A adrenergic receptor (Homo sapiens, UniProt P35348)
- Sequence (P35348 whole entry): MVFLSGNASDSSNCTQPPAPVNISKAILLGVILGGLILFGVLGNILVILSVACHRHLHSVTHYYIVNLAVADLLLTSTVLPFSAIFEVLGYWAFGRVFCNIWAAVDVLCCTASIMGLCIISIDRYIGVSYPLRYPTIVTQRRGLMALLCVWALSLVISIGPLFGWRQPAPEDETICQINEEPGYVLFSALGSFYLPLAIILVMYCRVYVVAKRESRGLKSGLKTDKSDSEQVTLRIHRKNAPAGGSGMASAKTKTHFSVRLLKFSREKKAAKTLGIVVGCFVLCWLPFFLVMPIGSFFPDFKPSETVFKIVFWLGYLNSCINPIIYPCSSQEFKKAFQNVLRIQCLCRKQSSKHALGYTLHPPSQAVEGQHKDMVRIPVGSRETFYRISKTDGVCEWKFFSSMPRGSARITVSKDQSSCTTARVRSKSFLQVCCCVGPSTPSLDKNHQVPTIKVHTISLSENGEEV

CC(N)Cc1ccc2c(c1)OCO2 (stereo not drawn) | > 10 µM
CCOc1cc(OC)c(CC(C)N)cc1OC (stereo not drawn) | > 10 µM
CCSc1cc(OC)c(CC(N)CC)cc1OC (stereo not drawn) | > 10 µM
CC(C)N(CCc1c[nH]c2ccccc12)C(C)C | > 10 µM
COc1cc(CC(C)N)c(OC)cc1C (stereo not drawn) | 3.22 µM

Then there is this compound:
The reported value for `COc1ccc2[nH]cc(CCN(C(C)C)C(C)C)c2c1` in terms of Ki is > 10 µM

----------
- System name: Muscarinic acetylcholine receptor M5 (Homo sapiens, UniProt P08912)
- Sequence (P08912 whole entry): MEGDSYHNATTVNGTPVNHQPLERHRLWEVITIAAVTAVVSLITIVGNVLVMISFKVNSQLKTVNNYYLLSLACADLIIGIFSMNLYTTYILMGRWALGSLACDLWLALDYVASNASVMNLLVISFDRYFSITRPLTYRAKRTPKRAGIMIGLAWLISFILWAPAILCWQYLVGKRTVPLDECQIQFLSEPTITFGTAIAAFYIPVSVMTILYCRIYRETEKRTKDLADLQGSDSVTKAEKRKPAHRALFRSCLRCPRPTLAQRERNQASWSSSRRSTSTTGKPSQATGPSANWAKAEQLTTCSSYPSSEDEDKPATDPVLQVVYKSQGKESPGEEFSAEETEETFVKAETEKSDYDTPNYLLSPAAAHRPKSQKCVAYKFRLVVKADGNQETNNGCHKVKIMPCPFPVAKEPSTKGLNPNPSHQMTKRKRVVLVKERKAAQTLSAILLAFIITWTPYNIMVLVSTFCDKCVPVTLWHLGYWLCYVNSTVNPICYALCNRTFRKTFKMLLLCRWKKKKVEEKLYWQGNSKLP
- Test summary: Ray2010 Assay 74
Reported property: Ki

Some compounds with known Ki results, for comparison:
COc1cc(CC(C)N)cc(OC)c1OC (stereo unspecified) | > 10 µM
COc1cc(CCN)c(OC)cc1Br | > 10 µM
CNC(C)Cc1ccc2c(c1)OCO2 (stereo unspecified) | 6.33 µM
COc1ccc2[nH]cc(CCN(C(C)C)C(C)C)c2c1 | > 10 µM
CCSc1cc(OC)c(CC(C)N)cc1OC (stereo unspecified) | 8.02 µM
CCSc1cc(OC)c(CC(N)CC)cc1OC (stereo unspecified) | > 10 µM
CCc1[nH]c2ccc(OC)cc2c1CCN(C)C | > 10 µM
CC(C)N(CCc1c[nH]c2ccccc12)C(C)C | > 10 µM

Per the records, this compound ( `CN(C)CCc1c[nH]c2ccccc12` ) has Ki equal to > 10 µM

GET /value?item= `NCCc1c2c(c(Br)c3c1OCC3)OCC2` &field=Ki returns 0.873 µM

Lookup result for `CN(C)CCc1c[nH]c2cc(F)ccc12` ; measured Ki: > 10 µM

Record summary for `COc1ccc2[nH]cc(CCN(C)C)c2c1` : reported Ki = > 10 µM

Per the records, this compound ( `CCSc1cc(OC)c(CCN)cc1OC` ) has Ki equal to 1.5 µM

Record COc1cc(OC)c(OC)cc1CC(C)N (stereo unspecified) . Reported Ki: > 10 µM

Note to self: Ki recorded for COc1cc(CC(C)N)c(OC)cc1C (stereo unspecified) was > 10 µM

// Ki lookup, compound = `COc1cc(CCN)cc(OC)c1OC` , result: > 10 µM

// Ki lookup, compound = `CCc1cc(OC)c(CCN)cc1OC` , result: 1.73 µM

Ki for `CCCN(CCC)CCc1c[nH]c2ccccc12` is > 10 µM
